Test system: Beta-galactosidase (Homo sapiens), P16278 [R201C]
Sequence (whole entry): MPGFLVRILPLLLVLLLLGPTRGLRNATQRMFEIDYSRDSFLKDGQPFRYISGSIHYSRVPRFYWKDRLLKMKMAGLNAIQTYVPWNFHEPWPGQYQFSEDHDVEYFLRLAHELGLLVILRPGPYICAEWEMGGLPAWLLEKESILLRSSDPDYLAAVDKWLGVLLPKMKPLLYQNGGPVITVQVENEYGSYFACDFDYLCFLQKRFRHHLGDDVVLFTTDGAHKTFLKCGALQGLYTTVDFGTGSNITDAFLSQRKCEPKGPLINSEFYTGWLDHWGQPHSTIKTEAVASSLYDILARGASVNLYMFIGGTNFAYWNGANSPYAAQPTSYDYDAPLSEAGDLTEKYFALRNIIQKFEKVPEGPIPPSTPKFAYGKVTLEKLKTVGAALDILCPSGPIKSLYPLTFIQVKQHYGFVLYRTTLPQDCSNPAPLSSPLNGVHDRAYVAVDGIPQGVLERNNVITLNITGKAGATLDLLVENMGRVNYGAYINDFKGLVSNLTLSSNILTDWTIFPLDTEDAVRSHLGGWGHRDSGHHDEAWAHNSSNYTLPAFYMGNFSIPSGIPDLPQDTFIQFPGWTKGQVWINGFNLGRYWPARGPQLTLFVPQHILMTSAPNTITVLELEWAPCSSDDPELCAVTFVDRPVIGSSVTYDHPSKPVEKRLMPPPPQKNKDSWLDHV
TEST_NAME: Activation of human beta-galactosidase R201C mutant expressed in mouse fibroblasts using 4-methylumbelliferone -conugated beta-D-galactoside as substrate at 20 uM preincubated for 48 hrs followed by substrate addition measured after 30 mins by fluorescence analysis relative to control
Items are presented alongside their recorded fold change (FC).
Give the figure only, with no unit attached.

QUERY_SMILES: Cl.O[C@@H]1[C@@H](O)[C@H](NCCc2ccccc2)C=C[C@@H]1O
fold change (FC): 4.2

QUERY_SMILES: CCCCCCN[C@@H]1C=C[C@H](O)[C@H](O)[C@H]1O.Cl
fold change (FC): 4.6

Give recorded fold change (FC). `CC(C)CN[C@@H]1C=C[C@H](O)[C@H](O)[C@H]1O.Cl`
4.6

Give recorded fold change (FC). `Cl.O[C@@H]1[C@@H](O)[C@H](NC2CCCCC2)C=C[C@@H]1O`
1.4

Give recorded fold change (FC). `CCCCCCCCN[C@@H]1C=C[C@H](O)[C@H](O)[C@H]1O.Cl`
5.4
